// data source = patent US10004732B2

- target: PI 3-kinase gamma (Homo sapiens, UniProt P48736)
- Sequence (P48736 whole entry): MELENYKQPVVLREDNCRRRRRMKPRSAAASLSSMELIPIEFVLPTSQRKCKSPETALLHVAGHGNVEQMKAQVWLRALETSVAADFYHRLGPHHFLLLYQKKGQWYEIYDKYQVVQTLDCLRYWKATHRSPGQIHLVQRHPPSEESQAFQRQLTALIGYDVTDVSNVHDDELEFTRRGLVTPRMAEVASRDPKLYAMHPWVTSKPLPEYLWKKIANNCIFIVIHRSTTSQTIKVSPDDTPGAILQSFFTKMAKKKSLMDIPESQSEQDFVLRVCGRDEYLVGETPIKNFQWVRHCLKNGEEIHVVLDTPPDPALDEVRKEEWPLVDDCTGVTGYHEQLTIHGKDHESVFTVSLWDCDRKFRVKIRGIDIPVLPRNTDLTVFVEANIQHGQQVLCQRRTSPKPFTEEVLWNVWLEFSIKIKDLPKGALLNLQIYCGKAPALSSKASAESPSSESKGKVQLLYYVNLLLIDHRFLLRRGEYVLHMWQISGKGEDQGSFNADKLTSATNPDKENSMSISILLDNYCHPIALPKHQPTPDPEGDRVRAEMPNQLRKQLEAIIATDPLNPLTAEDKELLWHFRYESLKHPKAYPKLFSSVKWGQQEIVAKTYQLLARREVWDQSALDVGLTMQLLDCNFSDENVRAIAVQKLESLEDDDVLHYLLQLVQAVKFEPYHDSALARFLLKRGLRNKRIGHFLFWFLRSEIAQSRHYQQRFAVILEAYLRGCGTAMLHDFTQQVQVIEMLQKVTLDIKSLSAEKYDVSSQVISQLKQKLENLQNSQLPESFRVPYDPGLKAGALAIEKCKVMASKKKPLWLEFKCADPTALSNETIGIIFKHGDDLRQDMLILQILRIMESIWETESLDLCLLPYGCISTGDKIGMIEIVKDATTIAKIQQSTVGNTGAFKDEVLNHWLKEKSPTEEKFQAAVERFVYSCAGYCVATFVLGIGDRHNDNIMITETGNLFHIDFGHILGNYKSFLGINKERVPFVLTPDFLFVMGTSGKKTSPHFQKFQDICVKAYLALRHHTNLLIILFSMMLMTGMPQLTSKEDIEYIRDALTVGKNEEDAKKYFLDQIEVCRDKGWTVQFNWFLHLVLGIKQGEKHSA
- assay-text: TR-FRET Adapta assay, assay E
- Format: biochemical
- run-conditions: read-out: Assay E PI3Kγ IC50
Counter-ions that a name gives are not always drawn.
endpoint: IC50 (nM)

Reference set, count: 4
>>> observed("Cc1ccc(S(=O)(=O)N[C@H]2CC[C@](C)(O)CC2)cc1-c1cnc(N)c(-n2cncn2)n1 [Example 69a]")
38
>>> observed("Cc1ccc(S(=O)(=O)NCC(C)(F)F)cc1-c1cnc(N)c(-n2cncn2)n1 [Example 127.43]")
95
>>> observed("Cc1ccc(S(=O)(=O)N[C@@H]2CNC[C@H]2O)cc1-c1cnc(N)c(-n2cncn2)n1 [Example 127.60, trifluoroacetic acid salt]")
140
>>> observed("Cc1cc(-c2nc(-c3cc(S(=O)(=O)NCC4CCOC4)ccc3C)cnc2N)ccn1 (stereo not shown) [Example 129.18]")
64

I. Cc1ccc(S(=O)(=O)NC[C@](C)(O)C(F)(F)F)cc1-c1cnc(N)c(-n2cncn2)n1 [Example 127.23]
II. Cc1ccc(S(=O)(=O)NCCC(C)(C)O)cc1-c1cnc(N)c(-c2ccncc2)n1 [Example 119.27]
III. Cc1ccc(S(=O)(=O)NOCCN(C)C)cc1-c1cnc(N)c(-n2cncn2)n1 [Example 112.2]
Rank the 3 compounds: largest IC50 first, smallest last. Please write the labels in the order that was asked for.
III, II, I
